Target: PI3Kβ (Homo sapiens (Human))
Sequence (P42338 whole entry, canonical isoform): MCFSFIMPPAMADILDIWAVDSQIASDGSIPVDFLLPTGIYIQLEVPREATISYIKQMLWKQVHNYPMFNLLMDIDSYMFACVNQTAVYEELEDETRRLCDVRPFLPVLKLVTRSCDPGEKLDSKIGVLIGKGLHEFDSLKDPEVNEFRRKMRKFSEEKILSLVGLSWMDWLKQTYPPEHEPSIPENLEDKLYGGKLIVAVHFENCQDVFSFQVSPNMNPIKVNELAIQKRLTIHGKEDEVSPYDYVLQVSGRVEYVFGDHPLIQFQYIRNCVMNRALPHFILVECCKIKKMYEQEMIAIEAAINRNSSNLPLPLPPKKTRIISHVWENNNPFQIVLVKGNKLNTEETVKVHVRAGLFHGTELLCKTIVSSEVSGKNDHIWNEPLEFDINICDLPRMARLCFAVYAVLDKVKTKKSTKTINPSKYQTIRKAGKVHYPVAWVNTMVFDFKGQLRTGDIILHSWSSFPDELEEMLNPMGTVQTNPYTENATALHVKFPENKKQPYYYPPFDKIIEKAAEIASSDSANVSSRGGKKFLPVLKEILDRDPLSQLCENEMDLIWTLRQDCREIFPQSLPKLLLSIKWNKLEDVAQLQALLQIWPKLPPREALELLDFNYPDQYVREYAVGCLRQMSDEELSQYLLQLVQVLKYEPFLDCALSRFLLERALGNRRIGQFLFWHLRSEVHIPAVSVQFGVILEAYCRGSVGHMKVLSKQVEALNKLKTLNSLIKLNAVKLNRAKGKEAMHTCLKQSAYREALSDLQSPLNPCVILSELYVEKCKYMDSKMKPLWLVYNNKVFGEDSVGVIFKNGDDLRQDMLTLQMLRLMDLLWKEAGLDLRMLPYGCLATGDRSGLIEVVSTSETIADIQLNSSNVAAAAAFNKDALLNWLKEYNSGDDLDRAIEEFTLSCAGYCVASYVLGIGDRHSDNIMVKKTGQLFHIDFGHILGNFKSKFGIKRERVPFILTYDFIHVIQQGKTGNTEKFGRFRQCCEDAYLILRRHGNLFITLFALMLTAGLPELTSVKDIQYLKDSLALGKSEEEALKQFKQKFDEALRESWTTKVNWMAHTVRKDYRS
Sequence (P27986 whole entry partner, canonical isoform): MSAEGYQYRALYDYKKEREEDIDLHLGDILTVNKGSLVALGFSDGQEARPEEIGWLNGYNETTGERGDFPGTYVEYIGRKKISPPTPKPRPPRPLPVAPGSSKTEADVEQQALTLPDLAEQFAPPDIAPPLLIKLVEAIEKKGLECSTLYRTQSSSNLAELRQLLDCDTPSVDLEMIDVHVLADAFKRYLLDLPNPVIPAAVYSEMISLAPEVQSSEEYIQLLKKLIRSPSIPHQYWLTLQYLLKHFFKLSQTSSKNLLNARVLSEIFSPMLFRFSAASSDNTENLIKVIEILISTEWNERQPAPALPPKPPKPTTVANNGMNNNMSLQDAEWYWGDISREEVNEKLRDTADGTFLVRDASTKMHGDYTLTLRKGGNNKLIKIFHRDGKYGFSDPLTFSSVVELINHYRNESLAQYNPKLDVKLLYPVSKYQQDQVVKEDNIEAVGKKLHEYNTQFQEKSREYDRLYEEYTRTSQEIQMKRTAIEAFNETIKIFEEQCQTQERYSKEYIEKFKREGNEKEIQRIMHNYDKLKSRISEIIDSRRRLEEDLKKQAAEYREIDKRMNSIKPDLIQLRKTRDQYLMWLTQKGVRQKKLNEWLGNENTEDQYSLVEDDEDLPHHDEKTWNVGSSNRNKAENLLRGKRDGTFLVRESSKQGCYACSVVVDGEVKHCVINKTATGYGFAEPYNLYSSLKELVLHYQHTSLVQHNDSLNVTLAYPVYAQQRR
Experiment: PI3K isoform TR-FRET enzymatic assay (PI3Kβ)
Details: 2× Km ATP, 30 minutes at 25° C.
Method: The compounds of formula (I) were characterized for their enzymatic activity against the PI3K isoforms. The activities were measured using a time-resolved fluorescence resonance energy transfer (TR-FRET) assay. TR-FRET monitored the formation of 3,4,5-inositol triphosphate molecule that competed with fluorescently labeled PIP3 for binding to the GRP-1 pleckstrin homology domain protein. Class I PI3K isoforms were expressed and purified as heterodimeric recombinant proteins. […]
pIC50: −log10 of the molar value.
measuredParameter: pIC50

Example entries and their recorded answers appear below.
{"columns": ["compound", "measuredResult"],
 "data": [
  ["Cc1nc2c(-c3nnc[nH]3)cc(N3CCOCC3)cc2n1-c1ccnc2c(Cl)cccc12 [Example 101]", 8.15],
  ["Cc1nc2c(-c3nnc(Cl)[nH]3)cc(N3CCOCC3)cc2n1-c1ccnc2c(Cl)cccc12 (atropisomer, axis not shown) [Compound 358]", 8.00],
  ["Cc1nc2c(-c3cnc(Cl)[nH]3)cc(N3CCOCC3)cc2n1-c1ccnc2c(F)ccc(F)c12 (atropisomer, axis not shown) [Compound 372]", 8.22]
]}

A = CCCc1nc2c(-c3ncco3)cc(N3CCOCC3)cc2n1-c1ccnc2c(F)cccc12 [Example 223]
B = Cc1nc2c(-c3nnc[nH]3)c(F)c(N3CCOCC3)cc2n1-c1ccnc2c(Cl)cccc12 [Example 86]
C = Cc1c(C2CC2)nc2ccccc2c1-n1c(C)nc2c(-c3nnc[nH]3)cc(N3CCOCC3)cc21 [Example 56]
D = Clc1cccc2c(-n3cnc4c(-c5nnc[nH]5)cc(N5CCOCC5)cc43)ccnc12 [Example 111]
Order the items by recorded pIC50; the first position goes to the largest value. Output the labels ranked as instructed.
D, A, B, C
(D: 8.52, A: 8.05, B: 7.80, C: 7.14)

----------
Target: PI3Kβ (Homo sapiens (Human))
Assay: PI3K isoform TR-FRET enzymatic assay (PI3Kβ)
Conditions: 2× Km ATP, 30 minutes at 25° C.
measuredParameter: IC50 (nM)

Example entries and their recorded answers appear below.
{"columns": ["molecule", "measuredOn", "measuredParameter", "measuredResult"],
 "data": [
  ["Fc1ccc2c(-n3c(C4CC4)nc4c(-c5nnc[nH]5)cc(N5CCOCC5)cc43)ccnc2c1Cl", "PI3Kβ (Homo sapiens (Human))", "IC50", 11],
  ["CCc1nc2c(-c3cnc(Cl)[nH]3)cc(N3CCOCC3)cc2n1-c1ccnc2c(Cl)c(F)ccc12", "PI3Kβ (Homo sapiens (Human))", "IC50", 12],
  ["Cc1cnc2c(C#N)cccc2c1-n1c(C)nc2c(-c3nnc[nH]3)cc(N3CCOCC3)cc21 (atropisomer, axis not shown) [Compound 375]", "PI3Kβ (Homo sapiens (Human))", "IC50", 7100],
  ["Clc1cccc2c(-n3c(C4CC4)nc4c(-c5cnn[nH]5)cc(N5CCOCC5)cc43)ccnc12", "PI3Kβ (Homo sapiens (Human))", "IC50", 27],
  ["CC(C)(C)c1nc2c(-c3nnc[nH]3)cc(N3CCOCC3)cc2n1-c1ccnc2c(Cl)cccc12", "PI3Kβ (Homo sapiens (Human))", "IC50", 120],
  ["Cc1csc(-c2cc(N3CCOCC3)cc3c2nc(C)n3-c2ccnc3c(F)ccc(F)c23)n1", "PI3Kβ (Homo sapiens (Human))", "IC50", 8],
  ["Cc1nc2c(-c3nnc[nH]3)cc(N3CCOCC3)cc2n1-c1ccnc2c(C(F)F)cccc12", "PI3Kβ (Homo sapiens (Human))", "IC50", 9],
  ["CCc1nc2c(-c3nnc(C)[nH]3)cc(N3CCOCC3)cc2n1-c1ccnc2c(F)ccc(F)c12", "PI3Kβ (Homo sapiens (Human))", "IC50", 59]
]}

P = CCc1nc2c(-c3ncco3)cc(N3CCOCC3)cc2n1-c1ccnc2c(F)ccc(F)c12
Q = Fc1c(N2CCOCC2)cc(-c2nnc[nH]2)c2ncn(-c3ccnc4c(Cl)cccc34)c12
Exercise: compare P and Q ; which one has the greater IC50? State the label of the item chosen.
Q
(Q: 100 nM, P: 9 nM)

I = Cc1ncc(-c2cc(N3CCOCC3)cc3c2nc(C)n3-c2ccnc3c(Cl)cccc23)[nH]1
II = Cc1nnc(-c2cc(N3CCOCC3)cc3c2nc(-c2cccnc2)n3-c2ccnc3c(Cl)cccc23)[nH]1
Exercise: compare I and II ; which one has the greater IC50? State the label of the item chosen.
II
(II: 390 nM, I: 19 nM)

The measured values listed here are drawn from patent US10214519B2.
